- experimental.system: Aβ42 (Homo sapiens, UniProt P05067)
- Sequence (P05067 672-713): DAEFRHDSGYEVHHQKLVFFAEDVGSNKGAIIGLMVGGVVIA
- experiment.summary: Th-T (thioflavin-T) assay of Aβ42 aggregation
- Format: biochemical
- assay.conditions: concentration 20, unit not given; time-course reading M129
This listing pairs molecules with measured Th-T fluorescence of Aβ42 with compound, mean of three wells (Fig. 7a source data).
The reply should be a number, written without any unit.

Illustrative cases are given below, each with its answer.
molecule	assay.value
C=C1CC[C@@H]2[C@](C)(CC[C@H]3O[C@H](C=C(C)C)C[C@@]23C)[C@@H]1Cc1c(OC)oc(CO)c(C(=O)OC)c1=O	0.972
C=C1CCC2C(C)(CCC=C(C)C)C(O)CCC2(C)C1Cc1c(OC)oc(CO)c(C(=O)OC)c1=O (centres unmarked)	1.025
C=C1CCC2C(C)(CCC=C(C)C)C(O)CCC2(C)C1Cc1c(OC)oc(C)c(C(=O)OC)c1=O (centres unmarked)	1.587
C=C1CC[C@@H]2[C@](C)(CC[C@H]3O[C@H](C=C(C)C)C[C@@]23C)[C@@H]1Cc1c(OC)oc(CO)c(C)c1=O	3.1

The recorded Th-T fluorescence of Aβ42 with compound, mean of three wells (Fig. 7a source data) for entry C=C1CCC2C(C)(CCC=C(C)C)C(O)CCC2(C)C1Cc1c(OC)oc(CO)c(C)c1=O (centres unmarked) equals 2.166
